# Exposure values compiled below
Assay: Studies on pharmacokinetic properties in mice (plasma concentration by LC-MS/MS)
Assay type: in vivo
Settings: C57BL/6 male mice, intravenous or oral administration, dose not stated

structure.as.smiles	Exposure
Cc1cc2ncn(-c3cccc(-c4nncn4C4CC4)n3)c(=O)c2cc1-n1cnc(C2CC2)c1	59.568 µM·h
Cc1cc2c(F)cn(-c3cccc(-c4nncn4C(C)C)n3)c(=O)c2cc1-n1cnc(C2CC2)c1	29.007 µM·h
Cc1cc2c(cc1-n1cnc(C3CC3)c1)C(=O)N(c1cccc(-c3nnc4n3CCC4)n1)CC2	103.95 µM·h
Cc1cc2ncn(-c3cccc(-c4nncn4C(C)C)n3)c(=O)c2cc1-n1cnc(C2CC2)c1	31.832 µM·h
COc1ccc(-c2cc3ncn(-c4cccc(-c5nncn5C(C)C)n4)c(=O)c3cc2-n2cnc(C3CC3)c2)cn1	20.356 µM·h
Cc1cc2c(cc1-n1cnc(C3CC3)c1)C(=O)N(c1cccc(-c3nncn3C(C)C)n1)CC2	29.277 µM·h
Cc1cc2c(cc1-n1cnc(C3CC3)c1)C(=O)N(c1cccc(-c3nnc4n3CCCC4)n1)CC2	89.099 µM·h
CC(C)n1cnnc1-c1cccc(N2CCc3ccc(-n4cnc(C5CC5)c4)cc3C2=O)n1	69.652 µM·h
CC(C)n1cnnc1-c1cccc(-n2cc(F)c3ccc(-n4cnc(C5CC5)c4)cc3c2=O)n1	66.259 µM·h

Entry source: patent US10787435B2
